Kindly supply the reported IC50 values for the records listed here.
Target: N-acylethanolamine-hydrolyzing acid amidase (Homo sapiens)
Sequence (Q02083 whole entry): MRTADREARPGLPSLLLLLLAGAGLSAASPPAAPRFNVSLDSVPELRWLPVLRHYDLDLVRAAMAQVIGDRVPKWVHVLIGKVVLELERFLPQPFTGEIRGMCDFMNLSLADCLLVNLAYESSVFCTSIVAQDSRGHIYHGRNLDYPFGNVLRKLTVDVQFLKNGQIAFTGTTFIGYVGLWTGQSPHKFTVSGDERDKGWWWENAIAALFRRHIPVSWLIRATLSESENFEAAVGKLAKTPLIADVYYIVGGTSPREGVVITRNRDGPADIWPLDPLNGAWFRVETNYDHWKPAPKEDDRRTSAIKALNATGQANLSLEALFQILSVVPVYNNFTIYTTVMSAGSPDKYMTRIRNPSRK
Test: Fluorogenic Assay: The assay was run in Optiplate 96-wells black plates, in a total reaction volume of 200 μL. NAAA protein preparation (4.0 μg) was pre-incubated for 10 min with various concentrations of test compounds or vehicle control (5% DMSO) in 100 mM citrate/phosphate buffer (pH 4.5) containing 3.0 mM DTT, 0.1% Triton X-100, 0.05% BSA, 150 mM NaCl. N-(4-methyl-2-oxo-chromen-7-yl)-hexadecanamide was used as a substrate (5.0 μM) and the reaction carried over for 30 min at 37° C. The samples were then read in a Perkin Elmer Envision plate reader using an excitation wavelength of 360 nm and emission 460 nm.
# number then unit; no other words

Can you look up IC50 on N-acylethanolamine-hydrolyzing acid amidase (Homo sapiens) for CC[C@H]1OC(=O)[C@@H]1NC(=O)OCc1ccc(-c2ccccc2)cc1 (relative stereo) ? 6 nM

Can you look up IC50 on N-acylethanolamine-hydrolyzing acid amidase (Homo sapiens) for CC(C)(C)[C@@H]1OC(=O)[C@@H]1NC(=O)OCc1ccc(-c2ccccc2)cc1 (relative stereo) ? 897 nM

Can you look up IC50 on N-acylethanolamine-hydrolyzing acid amidase (Homo sapiens) for CC(C)[C@@H]1OC(=O)[C@@H]1NC(=O)OCc1ccc(-c2ccccc2)cc1 (relative stereo) ? 37 nM

Can you look up IC50 on N-acylethanolamine-hydrolyzing acid amidase (Homo sapiens) for CC(C)(C)[C@H]1OC(=O)[C@@H]1NC(=O)OCc1ccc(-c2ccccc2)cc1 (relative stereo) ? 465 nM

Can you look up IC50 on N-acylethanolamine-hydrolyzing acid amidase (Homo sapiens) for CC[C@@H]1OC(=O)[C@@H]1NC(=O)OCc1ccc(-c2ccccc2)cc1 (relative stereo) ? 15 nM

Can you look up IC50 on N-acylethanolamine-hydrolyzing acid amidase (Homo sapiens) for CC(C)[C@H]1OC(=O)[C@@H]1NC(=O)OCc1ccc(-c2ccccc2)cc1 (relative stereo) ? 23 nM
